System: OVCAR-3 ovarian
EXPERIMENT: NCI-60 one-dose screen, 48 h (100 = growth as untreated, 0 = no growth, -100 = all killed)
CONDITION: 10 µM unless noted
This is part of a sample that, as a whole, favours compounds with a hit. Of some 83,000 tested, about 20% had one in any assay.
REPORTED_PROPERTY: growth (%)
Number in %, nothing else.

Worked set:
{"COMPOUND": "O=C1c2c(c3c4cc(Br)ccc4[nH]c3c3ccc4ccccc4c23)C(=O)N1O", "ASSAYED_SYSTEM": "OVCAR-3 ovarian", "growth [%]": 107}
{"COMPOUND": "COc1ccc2nc(-n3nc(C)cc3C)c(-n3nc(C)cc3C)nc2c1", "ASSAYED_SYSTEM": "OVCAR-3 ovarian", "growth [%]": 126}
{"COMPOUND": "O=c1onc(-c2ccccc2)c2ccccc12", "ASSAYED_SYSTEM": "OVCAR-3 ovarian", "growth [%]": 113}
{"COMPOUND": "Nc1c(Br)cc(Br)cc1-c1n[nH]c(=O)[nH]c1=O", "ASSAYED_SYSTEM": "OVCAR-3 ovarian", "growth [%]": 113}
{"COMPOUND": "CN1CCC(OC2c3ccccc3CCc3ccccc32)CC1", "ASSAYED_SYSTEM": "OVCAR-3 ovarian", "growth [%]": 106}
{"COMPOUND": "CN1CCN(c2ccc3nc(-c4ccc5nc(-c6ccc(C(F)(F)F)cc6)[nH]c5c4)[nH]c3c2)CC1", "ASSAYED_SYSTEM": "OVCAR-3 ovarian", "growth [%]": -17.3}

Ask: What does the data say about its growth? Entry: `Cc1nc2cc(Nc3nc(Nc4ccc(F)cc4)nc(N4CCCC4)n3)ccc2n1Cc1ccccc1`
Result: -84

Ask: Then what about the compound `OC[C@@H](O)[C@@H](O)CO` ?
Result: 106

Ask: Then what about the compound `CCOC(=O)c1c(Cl)c2c(n1Cc1ccc(OC)cc1)-c1oncc1CCC2` ?
Result: 102

Ask: Then what about the compound O=C1CC2c3cc(-c4cc5ccccc5o4)ccc3CCN2C(=O)N1c1ccccc1 (configuration not stated) ?
Result: 99.3

Ask: Then what about the compound `Cc1nc2cc(Nc3nc(NCCN)nc(Nc4ccc(F)cc4)n3)ccc2n1Cc1ccccc1` ?
Result: 86.7

Ask: Then what about the compound CCC(C)Oc1cc(/C=N/NC(=O)c2cnn3c2NC(c2ccccc2)C3)ccc1OC (configuration not stated) ?
Result: 2.52

Ask: Then what about the compound `CCCOC(=O)c1ccc2c(c1)[N+](=O)C(C(=O)c1ccccc1)=C(C(F)(F)F)[N+]2=O` ?
Result: -95.3

----------
Tested on: UO-31 renal
EXPERIMENT: NCI-60 one-dose screen, 48 h
CONDITION: 10 µM unless noted
This is part of a sample that, as a whole, favours compounds with a hit. Of some 83,000 tested, about 20% had one in any assay. Calls of active or inactive are those of the source. Rule for the calls: active = growth percent below 10; inactive = the rest.
Classes to choose from: T for active, F for inactive

Before answering, review these 4 worked examples.
{"COMPOUND": "COc1ccc(-c2nn(-c3ccc(NC(=O)c4ccc(Cl)c(Cl)c4)cc3)cc2-c2ccncc2)cc1Cl", "ASSIGNED_CLASS": "T"}
{"COMPOUND": "COc1cc2nc(SCc3cc(OC)c(OC)c(OC)c3)n(-c3ccccc3OC)c(=O)c2cc1OC", "ASSIGNED_CLASS": "F"}
{"COMPOUND": "COc1ccc(-n2ncc3c2ccc2cc(S(=O)(=O)c4ccccc4)c(=O)n(C)c23)cc1", "ASSIGNED_CLASS": "F"}
{"COMPOUND": "Cn1cc(C(=O)NCCC(=N)N)cc1NC(=O)CN=C(N)N", "ASSIGNED_CLASS": "F"}

Ask: Per the records of this test, what outcome belongs to `Cn1c2ccccc2c2nn(C(=O)c3ccccc3)c(=O)nc21` ?
Result: F

Ask: Then what about the compound `C=CC(=O)N1CC2(CCC(n3nc(-c4ccc(Oc5ccccc5)cc4)c4c(N)ncnc43)CC2)C1` ?
Result: T

Ask: Then what about the compound `COC(=O)c1c2c(c(C)[n+]([O-])c1C)C(=O)C=C(NCc1cccc(OC)c1)C2=O` ?
Result: T

Ask: Then what about the compound `NS(=O)(=O)c1ccc(C(=O)N/N=C(\CS(=O)(=O)c2ccccc2)c2cc3cc(Br)ccc3o2)cc1` ?
Result: F

Ask: Then what about the compound `O=C(N/N=C(\CS(=O)(=O)c1ccccc1)c1cc2cc(Br)ccc2oc1=O)c1ccccc1` ?
Result: F

Ask: Then what about the compound `Fc1ccccc1Nc1ccc2nnc(-c3ccncc3)n2n1` ?
Result: F

Where do these numbers come from? They come from PubChem BioAssay (NCI).
